Hi there, I'd appreciate the recorded log10(solubility) for every entry that follows.
- measurement.notes: Solubility at saturation in the solvent of interest, calculated from UV-VIS spectra of saturated solutions
- test.settings: propylene carbonate, organic solvent or mixture, thermodynamic from solid
The base-10 logarithm of solubility, taken with solubility in mM, is what appears here.

Please give the measured log10(solubility) for this compound: "CC[N+](CC)(CC)CCCCn1c(=NN=c2sc3ccccc3n2C)sc2ccccc21.F[B-](F)(F)F" 1.67

Which value of log10(solubility) has been reported for Cc1ccc2c(c1)N(C)c1ccc(C)cc1N2C [reference compound] in the records? 1.74

Record request: log10(solubility) value, item c1ccc(N2c3ccccc3N(CCN3CCCCC3)c3ccccc32)cc1 [reference compound] 0.70

Entry CN1c2ccccc2N(C)c2ccccc21 [5,10-Dihydro-5,10-dimethylphenazine, reference compound] : reported log10(solubility) = ? 2.04

May I ask what log10(solubility) has been recorded for CCn1c(=NN=c2sc3ccccc3n2CC)sc2ccccc21 [reference compound] ? 1.08
